Test: compound binding in COS7 lysate, probe aLAP1, primary screen, cell lysate, small-molecule microarray (AID 1124);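 note: lysate comes from COS7 cells expressing LAP1 and is applied at 0.3 µg/mL; score merges spot fluorescence near 667 nm with signal-to-noise over triplicate slides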
Conditions: probe aLAP1, fluorescence, higher = more signal
Threshold rule: composite z-score greater than or equal to -0.2 is y; below that, n.

Task: Entry COCCOC(=O)N1C(=O)[C@@]2(c3cc(C#Cc4ccc(OC)cc4)ccc31)[C@H](C(=O)N1CCN(c3ncccn3)CC1)[C@H]1C(=O)O[C@H](c3ccccc3)[C@H](c3ccccc3)N1[C@@H]2c1ccccc1OCCO : is its composite z-score no less than -0.2?
Result: y

Task: Evaluate COCCOC(=O)N1C(=O)[C@@]2(c3cc(C#CCNC(N)=O)ccc31)[C@H](C(=O)N1CCCCCCC1)[C@H]1C(=O)O[C@H](c3ccccc3)[C@H](c3ccccc3)N1[C@@H]2c1ccc(O)cc1 : composite z-score at minimum -0.2?
Result: y

Others:
Task: Hello, I need to know if CN1C2C=C(CCCO)C(C3C(=O)N(C(N)=O)C(=O)C32)C1c1cccs1 (stereo unspecified) has measured composite z-score not below -0.2. Thanks!
Result: n

Task: # check: composite z-score of Cc1ccc(F)cc1S(=O)(=O)N[C@@H]1CCN(Cc2ccc(OC(C)C)cc2)C1 is greater than or equal to -0.2
Result: y

Task: Decide: is the reported value of composite z-score for COCCOC(=O)N1C(=O)[C@@]2(c3cc(C#CC4(O)CCCCCC4)ccc31)[C@H](c1ccccc1OCCO)N1[C@H](c3ccccc3)[C@H](c3ccccc3)OC(=O)[C@H]1[C@@H]2C(N)=O equal to or greater than -0.2?
Result: n

Task: Answer whether composite z-score of CC(C)C(O)C1C=CC2C(=O)N(C)C(=O)C2N1N(c1ccccc1)c1ccccc1 (stereo unspecified) is greater than or equal to -0.2.
Result: n
